Just for reference, PubChem BioAssay AID1963865 is where these values come from.

Test system: KRAS PDC multicell spheroid viability;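 note: spheroids exposed to compounds for 7 days; 100% = DMSO vehicle control viability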
Test: Anticancer human tumor 825966-067-R-J1-PDC patient-derived colon carcinoma cell line growth inhibition [KRAS2]
Conditions: second compound 10 µM; first compound 0.316 µM; active compounds read low
Excerpt: Multicellular complex tumor spheroid response to RAS pathway inhibitors in combination with a targeted agents in patient-derived cell lines with oncogenic KRAS variants from multiple cancer types A high-throughput screen of multi-cell type tumor spheroids was designed to identify active combinations of targeted small molecules and KRAS pathway inhibitors. […] Compounds. […] If the clinical Cmax for an agent had not been determined, the highest concentration tested was 10 microM. […]
measurement.type: viability, T/C

Example compounds with recorded viability, T/C:
{"compound": "CC1OCC2(CCN(c3cnc(Sc4ccnc(N)c4Cl)c(N)n3)CC2)C1N (stereo not drawn) + COc1cc2nc(C)nc(NC(C)c3cc(N)cc(C(F)(F)F)c3)c2cc1OC1CCOC1", "data.value": "63.1%"}
{"compound": "CCN1CCN(Cc2ccc(Nc3ncc(F)c(-c4cc(F)c5nc(C)n(C(C)C)c5c4)n3)nc2)CC1 + COc1cc2nc(C)nc(NC(C)c3cc(N)cc(C(F)(F)F)c3)c2cc1OC1CCOC1", "data.value": "5.53%"}

Next compound, please.
So what's the measured viability, T/C for this one? COc1cc(Nc2ncc3c(n2)-c2ccc(Cl)cc2C(c2c(F)cccc2OC)=NC3)ccc1C(=O)O + C=CC(=O)N1CCN(c2nc(=O)n(-c3c(C)ccnc3C(C)C)c3nc(-c4c(O)cccc4F)c(F)cc23)C(C)C1 97.7%
